# Experimental target: T1, HMMW micropeptide (recombinant, purified from Escherichia coli BL21) (human)
# T1 construct: also called purified HMMW micropeptide; human HMMW micropeptide
# T1 peptide: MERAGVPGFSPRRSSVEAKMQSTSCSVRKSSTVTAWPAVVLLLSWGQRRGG
# Assay name: indirect ELISA, HMMW micropeptide coated at 1 ug/ml, antibody dilution 1:3.125K
Readout: ELISA reading at antibody dilution 1:3.125K
Answers are plain numbers.

INSERT INTO assay_data (binder, value_measured) VALUES
  ('Anti-HMMW antibody-1 (antibody, V domains shown, Mouse monoclonal antibody from a BALB/c x SP2/0 hybridoma; also called anti-HMMW-1 antibody) VH: EVKLEESGGGLVQPGGSMKFSCVASGFTFSNYWMNWVRQSPERGLEWVAEIKLKSNNYATLYAESVKGRFTISRDDSKSSVYLQVNNLRAEDTGIYYCITEIFDYWGQGTTLTVSS VL: QAVVTQESALTTSPGETVTLTCRSSTGAVTTSNYATWVQEKPDHLFTGLIVGANNRAPGVPARFSGSLIGDKAALTITGAQTEDEAIYFCALWFLNHWVFGGGTKLTVLG', 2.85),
  ('Anti-HMMW antibody-6 (antibody, V domains shown, Mouse monoclonal antibody from a BALB/c x SP2/0 hybridoma; also called anti-HMMW-6 antibody) VH: EVKLEESGGGLVQPGGSMKLSCVASGFTFSNYWMNWVRQSPEKGLEWVAEIRLKSNNYATHYAESVTGRFTISRDDSKSSVYLQMNNLRAEDTGIYYCTLEAVDYWGQGTSVTVSS VL: DIVMTQAAFSNPVTLGTSASISCRSSKSLLHSDGITYLYWFLQKPGQSPQLLIYQMSNLASGVPDRFSSSGSGTDFTLRISRVEAEDVGVYYCAQNLELPTFGGGTKLEIK', 3.37),
  ('Anti-HMMW antibody-3 (antibody, V domains shown, Mouse monoclonal antibody from a BALB/c x SP2/0 hybridoma; also called anti-HMMW-3 antibody) VH: EVKLEESGGGLVQPGGSMKLSCVASGFTFSDYWMNWVRQSPEKGLEWLTEIRLKSDNYATHYAESVKGKFTISRDDSKSTVYLQMNNLRAEDTGIYYCSVETMDFWGQGTSVTVSS VL: QAVVTQESALTTSPGETVTLTCRSSIGAVTTNNYANWVQEKPDRLFTGLIRGTNNRVPGVPARFSGSLIGDKAALTITGAQTEDEAIYFCALWYSNHWVFGGGTKLTVL', 3.57);

Moving on to the next binder.
Write down ELISA reading at antibody dilution 1:3.125K measured for item Anti-HMMW antibody-5 (antibody, V domains shown, Mouse monoclonal antibody from a BALB/c x SP2/0 hybridoma; also called anti-HMMW-5 antibody) VH: EVKLEESGGGLVQPGGSMKLSCVVSGFTFSNYWMNWVRQSPERGLEWVAEIKLKSNNYATLYAASVKGRFTISRDDSKSSVYLQVNNLRTEDTGIYYCITEIFDYWGQGTTLTVSS VL: QTVVTQESALTTSPGETVTLTCRSSTGSVTTSNYATWVQEKPDHLFTGLIVGANNRAPGVPARFSGSLIGDKAALTITGAQTEDEAIYFCALWFIDHWVFGGGTKLTVL
2.92
